These measurements were taken from PubChem BioAssay (NCATS).

experiment: qHTS for Inhibitors of the Functional Ribonucleoprotein Complex (vRNP) of Lassa (LASV) Arenavirus: LASV Primary Screen - GLuc reporter signal (AID 1347082); details: LASV minigenome vRNP, Gaussia luciferase reporter; series mostly up to 57.5 µM; further: nearly all actives have a fitted effect of over 60% in size
Inconclusive results are not listed. Calls of active or inactive are those of the source. The call rests on the fitted dose curve; tested in HEK293 reporter line. Numbered stars: 1 amine (or outer) side, 2 acyl side, 3 side chain; on linkers, the order of the positions; unused ones are H or OH. Bridge positions count the residues as written; N and C are the ends. Square brackets hold non-standard residues; d marks the D form. Peptide text beside a SMILES is read from it. I, II: the chains in the order shown. Actinocin(9to1) = Cc1c2oc3c(C)ccc(C(=O)[*:1])c3nc-2c(C(=O)[*:2])c(N)c1=O; NMeV = CN[CH](C(=O)O)C(C)C; Sar = CNCC(=O)O
Thanks in advance; please answer with one of these: active, inactive

-- ask Give the logged outcome of this assay for the following compound: CCC(C(=O)O)C1CCC(C)C(C(C)C(O)C(C)C(=O)C(CC)C2OC3(C=CC(O)[C@@]4(CC[C@](C)(C5CC[C@@](O)(CC)C(C)O5)O4)O3)C(C)CC2C)O1 (stereo not given in full)
-- reply active

-- ask Hey, what did the test say about O=C(/C=C/c1ccc(O)c(O)c1)OC(Cc1ccc(O)c(O)c1)C(=O)O (stereo not given) ?
-- reply inactive

-- ask Could you kindly confirm the outcome this assay logged for CC(C)(C)c1onc(OCP(=O)(O)O)c1CC(N)C(=O)O (stereo not given) ?
-- reply inactive

-- ask # lookup: test call for Cc1c2oc3c(C)ccc(C(=O)NC4C(=O)NC(C(C)C)C(=O)N5CCCC5C(=O)N(C)CC(=O)N(C)C(C(C)C)C(=O)OC4C)c3nc-2c(C(=O)NC2C(=O)NC(C(C)C)C(=O)N3CCCC3C(=O)N(C)CC(=O)N(C)C(C(C)C)C(=O)OC2C)c(N)c1=O (stereo not given) (I: TVP[Sar][NMeV] / II: TVP[Sar][NMeV]; ester I:1-I:C, II:1-II:C; linker I:N-II:N via Actinocin(9to1); configuration not given here)
-- reply inactive

-- ask Answer briefly: the call reported for "C[C@H]1[C@H](NC(=O)C(=NOC(C)(C)C(=O)O)c2csc(N)n2)C(=O)N1S(=O)(=O)O" in this assay.
-- reply inactive

-- ask Per the records of this test, what outcome belongs to "O=C1c2c(O)cc(O)cc2O[C@@]12c1c(cc(O)c3c1O[C@H](c1ccc(O)cc1)[C@@H](O)C3)O[C@@H]2c1ccc(O)cc1" ?
-- reply inactive

-- ask Tell me the recorded outcome of this test for COc1ccc2cc1Oc1ccc(cc1)CC1c3cc(c(OC)cc3CCN1C)Oc1c(OC)c(OC)c(OC)c3c1C(C2)N(C)CC3 (stereo not given) .
-- reply inactive

-- ask Look up the recorded call for COc1ccc(CC2c3cc(OC)c(OC)cc3CCN2C)cc1O (stereo not given) in this test.
-- reply inactive

-- ask Name the outcome recorded for "C[N+]1(CCCCC[N+]2(C)CCCC2)CCCC1" in the assay.
-- reply inactive

-- ask GET /call?item= CC(=O)O[C@@H]1CC2C(C)(C)C(=O)C=C[C@]2(C)C2CC[C@]3(C)C(=CC[C@H]3C3CO[C@@H](C(C)(C)O)[C@H](O)C3)[C@@]21C (stereo not given in full) returns the recorded outcome of this test.
-- reply inactive

-- ask Outcome logged for "CC=C(C(=CC)c1ccc(O)cc1)c1ccc(O)cc1" in this assay:
-- reply inactive

-- ask Which result was noted for this compound in the test: O=C(/C=C/c1ccc(O)cc1)OCc1occc(=O)c1O[C@@H]1OC(CO)[C@@H](O)[C@H](O)[C@@H]1O (stereo not given in full)
-- reply inactive

-- ask Any idea what this test logged for "NCc1ccccc1" ?
-- reply inactive

-- ask Returns: the outcome recorded for "C/C(=C\c1ccc(C(=O)O)cc1)c1ccc2c(c1)C(C)(C)CCC2(C)C" in this assay.
-- reply inactive

-- ask Could you kindly confirm the outcome this assay logged for "O=C1c2c(O)cc(O)cc2O[C@H](c2cc(O)c(O)c(O)c2)[C@H]1O" ?
-- reply inactive
